# Tested on: Escherichia coli
# Assay Details: minimum inhibitory concentration (MIC)
# Test Parameters: isolate (source animal id): 181
Entries and their measured minimum inhibitory concentration follow.

Please review the following examples before continuing.
Structure As Smiles | System Name | minimum inhibitory concentration
C=C[C@]1(C)C[C@@H](OC(=O)CSCCN(CC)CC)[C@]2(C)[C@H](C)CC[C@]3(CCC(=O)[C@H]32)[C@@H](C)[C@@H]1O | Escherichia coli | > 32 µg/mL
CC[C@H]1OC(=O)C[C@@H](O)[C@H](C)[C@@H](O[C@@H]2O[C@H](C)[C@@H](O)[C@H](N(C)C)[C@H]2O)[C@@H](CCN2CCCCC2)C[C@@H](C)C(=O)/C=C/C(C)=C/[C@@H]1CN1CCCCC1 | Escherichia coli | 16 µg/mL

Proceeding to the next molecule to report its minimum inhibitory concentration.
minimum inhibitory concentration in this record for "CS(=O)(=O)c1ccc([C@@H](O)[C@@H](CF)NC(=O)C(Cl)Cl)cc1" : > 8 µg/mL

----------
# System: Pasteurella multocida
# Assay Details: minimum inhibitory concentration (MIC)
# Test Parameters: isolate (source animal id): 150
Entries and their measured minimum inhibitory concentration follow.

Please review the following examples before continuing.
Structure As Smiles | System Name | Result
CN[C@@H]1[C@H](O)[C@H](NC)[C@H]2O[C@@]3(O)C(=O)C[C@@H](C)O[C@H]3O[C@@H]2[C@H]1O | Pasteurella multocida | > 64 µg/mL
CN1C[C@@H]2C[C@H]1CN2c1cc2c(cc1F)c(=O)c(C(=O)O)cn2C1CC1 | Pasteurella multocida | ≤ 0.12 µg/mL
CC[C@H]1OC(=O)C[C@@H](O)[C@H](C)[C@@H](O[C@@H]2O[C@H](C)[C@@H](O)[C@H](N(C)C)[C@H]2O)[C@@H](CCN2C[C@H](C)C[C@H](C)C2)C[C@@H](C)C(=O)/C=C/C(C)=C/[C@@H]1CO[C@@H]1O[C@H](C)[C@@H](O)[C@@H](OC)[C@H]1OC | Pasteurella multocida | > 16 µg/mL
NC[C@@H]1O[C@H](O[C@H]2[C@@H](O)[C@H](O[C@@H]3[C@@H](O)[C@H](N)C[C@H](N)[C@H]3O[C@H]3O[C@H](CN)[C@@H](O)[C@H](O)[C@H]3N)O[C@@H]2CO)[C@H](N)[C@@H](O)[C@@H]1O | Pasteurella multocida | > 32 µg/mL
CC[C@H]1OC(=O)C[C@@H](O)[C@H](C)[C@@H](O[C@@H]2O[C@H](C)[C@@H](O)[C@H](N(C)C)[C@H]2O)[C@@H](CCN2CCCCC2)C[C@@H](C)C(=O)/C=C/C(C)=C/[C@@H]1CN1CCCCC1 | Pasteurella multocida | > 16 µg/mL

minimum inhibitory concentration in this record for "C=C[C@]1(C)C[C@@H](OC(=O)CSCCN(CC)CC)[C@]2(C)[C@H](C)CC[C@]3(CCC(=O)[C@H]32)[C@@H](C)[C@@H]1O" : 32 µg/mL

----------
Entries and their measured minimum inhibitory concentration follow.
# Tested on: Escherichia coli
# Assay Details: minimum inhibitory concentration (MIC)
# Test Parameters: isolate (source animal id): 170
Value expressed in µg/mL; do not type the unit.

Structure As Smiles | Unit Of Measurement | minimum inhibitory concentration
CN[C@@H]1[C@H](O)[C@H](NC)[C@H]2O[C@@]3(O)C(=O)C[C@@H](C)O[C@H]3O[C@@H]2[C@H]1O | µg/mL | 16

Proceeding to the next compound to report its minimum inhibitory concentration.
minimum inhibitory concentration in this record for "CS(=O)(=O)c1ccc([C@@H](O)[C@@H](CF)NC(=O)C(Cl)Cl)cc1" : 4
